- tgt: TGF-beta receptor type-1 (Homo sapiens)
- Sequence (P36897 whole entry): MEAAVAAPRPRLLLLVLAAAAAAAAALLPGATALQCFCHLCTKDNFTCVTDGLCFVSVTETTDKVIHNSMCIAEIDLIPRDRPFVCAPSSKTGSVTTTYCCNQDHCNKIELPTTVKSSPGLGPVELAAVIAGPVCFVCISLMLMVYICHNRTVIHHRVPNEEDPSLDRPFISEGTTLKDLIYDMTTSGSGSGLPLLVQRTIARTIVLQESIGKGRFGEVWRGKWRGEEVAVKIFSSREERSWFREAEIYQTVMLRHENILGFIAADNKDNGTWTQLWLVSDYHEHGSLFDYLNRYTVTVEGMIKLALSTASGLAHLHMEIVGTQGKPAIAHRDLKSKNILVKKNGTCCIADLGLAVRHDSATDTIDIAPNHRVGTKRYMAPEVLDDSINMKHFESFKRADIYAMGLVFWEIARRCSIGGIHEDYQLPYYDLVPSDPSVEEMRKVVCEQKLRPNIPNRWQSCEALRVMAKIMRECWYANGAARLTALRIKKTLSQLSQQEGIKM
- test: Inhibition of TGFbetaR1 (unknown origin) in presence of ATP
Note to self: use Yes only for IC50 readings below 400 nM; a reading exactly at 400 nM still gets No.

>>> df
                      structuresmilesstring  assignedlabel
0  Cc1cccc(-c2nn3c(c2-c2ccc4nccn4c2/C=C/C(N)=O)CCC3)n1             No
1  Cc1cccc(-c2nn3c(c2-c2ccc4ncnn4c2/C=C/C(N)=O)CCCC3)n1            Yes
2  Cc1cccc(-c2nn3c(c2-c2ccc4ncnn4c2/C=C/C(=O)O)CCC3)n1            Yes
3  Cc1nc(-c2nn3c(c2-c2ccc4ncnn4c2/C=C/C(N)=O)CCC3)ccc1Cl             No
4  CCOC(=O)/C=C/c1c(-c2c(-c3cccc(C)n3)nn3c2CCC3)ccc2ncnn12            Yes

# check: IC50 < 400 nM for Cc1cccc(-c2nn3c(c2-c2ccc4ncnn4c2/C=C/C(=O)NC2CC2)CCC3)n1
Yes

API: query returns whether the molecule falls strictly under 400 nM in IC50. Query: Cc1cccc(-c2nn3c(c2-c2ccc4ncnn4c2CNc2cc[nH]n2)CCC3)n1
Yes

Lab note: IC50 threshold 400 nM. Does this molecule come in strictly under it? Cc1cccc(-c2nn3c(c2-c2ccnc4c2CN(C(N)=O)CC4)CCC3)n1
No

====

Below: a set of entries, each annotated with reported Ratio IC50.
- Species on record: Homo sapiens
- test: Selectivity ratio of IC50 for p38alpha (unknown origin) to IC50 for TGFbetaR1 (unknown origin)
Answer with a bare number; do not write a unit.

In [3]: df
Out[3]:
                      structuresmilesstring  measurementtype  obsvalue
0  Cc1cccc(-c2nn3c(c2-c2ccc4ncnn4c2/C=C/C(=O)NCCO)CCC3)n1       Ratio IC50      24.6
1  Cc1cccc(-c2nn3c(c2-c2ccnc(Nc4ccc(C(N)=O)cc4)c2)CCC3)n1       Ratio IC50       0.3

Name the recorded Ratio IC50 of the item Cc1cccc(-c2nn3c(c2-c2ccc4ncnn4c2/C=C/C(N)=O)CCCC3)n1 in your answer.
11.6

Give the measured Ratio IC50 for Cc1cccc(-c2nn3c(c2-c2ccnc(Nc4ccc(S(N)(=O)=O)cc4)c2)CCC3)n1
0.2

Please list Ratio IC50 recorded for the compound Cc1cccc(-c2nn3c(c2-c2ccc4ncsc4c2/C=C/C(N)=O)CCC3)n1
2.3

====

- tgt: UniProtKB P08684
- Sequence (P08684 whole entry): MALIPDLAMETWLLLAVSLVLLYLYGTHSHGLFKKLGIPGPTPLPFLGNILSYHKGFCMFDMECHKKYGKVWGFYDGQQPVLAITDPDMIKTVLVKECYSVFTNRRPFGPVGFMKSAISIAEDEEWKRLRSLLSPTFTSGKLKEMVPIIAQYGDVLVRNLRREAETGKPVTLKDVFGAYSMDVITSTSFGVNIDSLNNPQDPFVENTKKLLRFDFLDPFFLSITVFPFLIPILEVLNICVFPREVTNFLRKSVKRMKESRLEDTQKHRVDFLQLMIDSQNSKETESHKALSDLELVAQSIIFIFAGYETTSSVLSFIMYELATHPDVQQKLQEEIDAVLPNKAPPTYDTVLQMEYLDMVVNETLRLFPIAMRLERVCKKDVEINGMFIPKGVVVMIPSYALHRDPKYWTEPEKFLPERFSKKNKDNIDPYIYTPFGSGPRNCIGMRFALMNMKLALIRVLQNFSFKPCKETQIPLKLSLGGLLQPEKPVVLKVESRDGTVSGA
- test: Inhibition of CYP3A4 in human liver microsomes using midazolam as substrate preincubated for 10 mins followed by NADPH regeneration system addition and measured after 3 mins by LC-MS/MS analysis
- Format: ADME, Microsome
pIC50: −log10 of the molar value.
measurementType: pIC50

Given the compound Cc1cccc(-c2nn3c(c2-c2ccc4ncnn4c2/C=C/C(N)=O)CCC3)n1 , write its reported pIC50.
< 4.00

====

- test: Tmax in mouse H22 cell implanted BALB/c mouse at 15 to 50 mg/kg, po administered twice daily for 11 days
- Format: ADME, organism-based
- cond: in vivo, dose 15-50 mg/kg, time 11 day
measurementType: Tmax (h)
Answer with a number only, understood to be in h.

// Input: Cc1cccc(-c2nn3c(c2-c2ccc4ncnn4c2/C=C/C(N)=O)CCC3)n1 . Output its Tmax only.
1

====

- Species: Homo sapiens
- test: Selectivity ratio of IC50 for p38alpha (unknown origin) to IC50 for TGFbetaR1 (unknown origin)
measurementType: Ratio IC50
Reply: number alone, nothing else.

                      structuresmilesstring  measurementtype  obsvalue
0  CCNC(=O)/C=C/c1c(-c2c(-c3cccc(C)n3)nn3c2CCC3)ccc2ncnn12       Ratio IC50      15.2

Name the recorded Ratio IC50 of the item Cc1cccc(-c2nn3c(c2-c2ccc4ncnn4c2/C=C/C(=O)NC2CC2)CCC3)n1 in your answer.
18.6

Dear colleague, please send me the reported Ratio IC50 for CCc1cccc(-c2nn3c(c2-c2ccc4ncnn4c2/C=C/C(N)=O)CCC3)n1 when you can.
12.8

====

- tgt: Voltage-gated inwardly rectifying potassium channel KCNH2 (Homo sapiens, UniProt Q12809)
- Sequence (Q12809 whole entry): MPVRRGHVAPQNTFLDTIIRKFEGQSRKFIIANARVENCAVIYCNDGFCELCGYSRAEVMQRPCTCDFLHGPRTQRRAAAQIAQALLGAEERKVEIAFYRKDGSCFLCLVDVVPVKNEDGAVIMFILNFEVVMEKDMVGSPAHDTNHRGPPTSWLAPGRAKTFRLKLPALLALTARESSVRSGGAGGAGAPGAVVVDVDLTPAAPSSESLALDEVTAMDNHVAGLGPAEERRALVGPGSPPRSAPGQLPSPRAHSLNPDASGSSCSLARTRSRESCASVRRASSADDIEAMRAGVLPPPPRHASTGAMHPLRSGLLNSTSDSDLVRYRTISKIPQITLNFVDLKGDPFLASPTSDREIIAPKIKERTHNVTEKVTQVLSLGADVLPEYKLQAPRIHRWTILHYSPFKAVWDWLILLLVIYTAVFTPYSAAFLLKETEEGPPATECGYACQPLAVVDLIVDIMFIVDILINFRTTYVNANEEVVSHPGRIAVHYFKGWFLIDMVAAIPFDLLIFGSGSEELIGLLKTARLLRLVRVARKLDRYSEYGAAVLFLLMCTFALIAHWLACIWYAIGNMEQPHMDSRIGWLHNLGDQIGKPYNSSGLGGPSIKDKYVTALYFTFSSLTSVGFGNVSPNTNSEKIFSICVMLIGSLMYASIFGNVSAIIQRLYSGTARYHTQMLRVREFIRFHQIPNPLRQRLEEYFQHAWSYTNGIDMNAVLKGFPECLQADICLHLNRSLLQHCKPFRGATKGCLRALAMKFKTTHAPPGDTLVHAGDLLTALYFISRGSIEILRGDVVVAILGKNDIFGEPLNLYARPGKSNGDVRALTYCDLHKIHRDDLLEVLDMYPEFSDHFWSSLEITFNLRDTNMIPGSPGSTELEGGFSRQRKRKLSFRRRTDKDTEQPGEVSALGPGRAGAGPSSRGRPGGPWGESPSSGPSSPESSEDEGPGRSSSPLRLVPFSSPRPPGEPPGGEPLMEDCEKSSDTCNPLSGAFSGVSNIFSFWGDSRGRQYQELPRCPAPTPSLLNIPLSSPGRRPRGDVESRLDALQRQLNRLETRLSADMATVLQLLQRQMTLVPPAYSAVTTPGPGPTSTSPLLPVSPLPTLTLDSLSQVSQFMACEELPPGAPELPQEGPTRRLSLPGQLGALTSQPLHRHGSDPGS
- test: Inhibition of human ERG stably expressed in HEK293 cells measured at holding potential of -80 mV by manual patch clamp assay
measurementType: IC50

Identify measured IC50 associated with Cc1cccc(-c2nn3c(c2-c2ccc4ncnn4c2/C=C/C(N)=O)CCC3)n1
> 30 µM

====

- System: MDR1
- test: Efflux ratio of apparent permeability in dog MDCK-MDR1 cells at 2 uM measured over 150 mins by LC-MS/MS analysis
- Type: ADME, cell-based, Canis lupus familiaris
measurementType: efflux ratio at 2.5 h, 2 µM
The response must contain the number and no unit.

Some compounds with known efflux ratio at 2.5 h, 2 µM results, for comparison:
>>> df
                      structuresmilesstring              measurementtype  obsvalue
0  Cc1cccc(-c2nn3c(c2-c2ccc4ncnn4c2/C=C/C(=O)O)CCC3)n1  efflux ratio at 2.5 h, 2 µM      1.46
1  Cc1cccc(-c2nn3c(c2-c2ccc4ncnn4c2/C=C/C(=O)NO)CCC3)n1  efflux ratio at 2.5 h, 2 µM      43.4
2  Cc1cccc(-c2nn3c(c2-c2ccc4ncnn4c2/C=C/C(C)(C)O)CCC3)n1  efflux ratio at 2.5 h, 2 µM      6.12

Next compound, please.
Query efflux ratio at 2.5 h, 2 µM for Cc1cccc(-c2nn3c(c2-c2ccc4ncnn4c2/C=C/C(N)=O)CCC3)n1
70.7

====

- tgt: Cytochrome P450 2D6 (Homo sapiens, UniProt P10635)
- Sequence (P10635 whole entry): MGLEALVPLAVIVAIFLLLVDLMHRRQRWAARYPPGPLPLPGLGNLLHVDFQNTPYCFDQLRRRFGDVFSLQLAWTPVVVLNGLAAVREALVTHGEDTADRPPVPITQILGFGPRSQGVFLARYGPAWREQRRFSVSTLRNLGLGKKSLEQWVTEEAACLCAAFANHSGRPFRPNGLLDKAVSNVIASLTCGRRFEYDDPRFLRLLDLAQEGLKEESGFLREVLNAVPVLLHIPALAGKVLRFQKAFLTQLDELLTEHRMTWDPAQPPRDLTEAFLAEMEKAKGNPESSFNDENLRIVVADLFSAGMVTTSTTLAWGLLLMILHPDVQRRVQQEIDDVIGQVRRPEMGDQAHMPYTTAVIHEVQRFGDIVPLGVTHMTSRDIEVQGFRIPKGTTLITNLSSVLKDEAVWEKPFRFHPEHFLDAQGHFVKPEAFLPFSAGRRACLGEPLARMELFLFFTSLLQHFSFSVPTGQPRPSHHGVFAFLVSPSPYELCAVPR
pIC50: −log10 of the molar value.
measurementType: pIC50

Name the recorded pIC50 of Cc1cccc(-c2nn3c(c2-c2ccc4ncnn4c2/C=C/C(N)=O)CCC3)n1 , assay system Cytochrome P450 2D6 (Homo sapiens, UniProt P10635).
< 4.00

====

- test: Clearance in CD-1 mouse at 1 mg/kg, iv by LC-MS/MS analysis
- Assay type: ADME, organism-based
- cond: in vivo
We begin with a simple list: items and their reported clearance.
Give the number; mL/min/kg is assumed, so skip it.

>>> df
                      structuresmilesstring  measurementtype  obsvalue
0  Cc1cccc(-c2nn3c(c2-c2ccc4ncnn4c2/C=C/C(N)=O)CCC3)n1        clearance      63.3

Next item in the queue.
Fill in reported clearance for this entry: Cc1cccc(-c2nn3c(c2-c2ccc4ncnn4c2/C=C/C(C)(C)O)CCC3)n1
105

====

- test: Oral bioavailability in CD-1 mouse at 5 mg/kg via gavage by LC-MS/MS analysis
- Format: ADME, organism-based
- cond: in vivo
Form field: bioavailability (one value per entry).
Give the number; % is assumed, so skip it.

                      structuresmilesstring  obsvalue
0  Cc1cccc(-c2nn3c(c2-c2ccc4ncnn4c2/C=C/C(C)(C)O)CCC3)n1      5.48

Identify measured bioavailability corresponding to Cc1cccc(-c2nn3c(c2-c2ccc4ncnn4c2/C=C/C(N)=O)CCC3)n1
8.74

====

- test: Volume of distribution at steady state in Beagle dog at 1 mg/kg, iv by LC-MS/MS analysis
- Assay type: ADME, organism-based, Canis lupus familiaris
- cond: in vivo, read-out: Vdss
measurementType: Vd (L/kg)
Number in L/kg, nothing else.

State its Vd for this compound: Cc1cccc(-c2nn3c(c2-c2ccc4ncnn4c2/C=C/C(N)=O)CCC3)n1
0.961

====

- test: Clearance in Sprague-Dawley rat at 1 mg/kg, iv by LC-MS/MS analysis
- Format: ADME, organism-based
- cond: in vivo
measurementType: clearance (mL/min/kg)
Unit mL/min/kg implied. Number only.

Please list clearance recorded for the molecule Cc1cccc(-c2nn3c(c2-c2ccc4ncnn4c2/C=C/C(N)=O)CCC3)n1
33.3

Origin of measurements: ChEMBL document CHEMBL6182942
